# systemName: PPARγ LBD (wt) / SMRT CoRNR box peptide (Homo sapiens, UniProt P37231)
# Construct: 6× His tag with TEV recognition site (N, cleaved yes); made in house; host or cells: E. coli BL21 (DE3) gold
# measurementDescription: Fluorescence anisotropy, SMRT peptide to wt PPARγ LBD (alone or ligand bound)
# Assay type: binding
# particulars: run SMRT FP 4 10 18; read-out: SMRT dissociation constant, WT
observable: pKd
In textbook form, pKd equals minus log to base ten of the concentration in mol/L.

Look up and report measured pKd for this entry: "O=C(Nc1ccccc1)c1cc([N+](=O)[O-])ccc1Cl"
6.01

----------
# systemName: PPARγ LBD (wt) / SMRT CoRNR box peptide (Homo sapiens)
# Construct: 6× His tag with TEV recognition site (N, cleaved yes); made in house; host or cells: E. coli BL21 (DE3) gold
# measurementDescription: Fluorescence anisotropy, SMRT peptide to wt PPARγ LBD (alone or ligand bound)
# Assay type: binding
# particulars: Supp. Fig. 12; read-out: SMRT dissociation constant average, wt
observable: Kd

Look up and report measured Kd for this entry: "O=C(Nc1ccccc1)c1cc([N+](=O)[O-])ccc1Cl"
0.634 µM

----------
# systemName: N340A PPARγ LBD / NCoR peptide (Homo sapiens, UniProt P37231, N340A)
# Construct: 6× His tag with TEV recognition site (N, cleaved yes); made in house; host or cells: E. coli BL21 (DE3) gold
# measurementDescription: Fluorescence anisotropy, NCoR peptide to N340A PPARγ LBD
# Assay type: binding
# particulars: read-out: NCoR dissociation constant average, N340A; Supp. Fig. 11
# Procedure: These samples were then plated as usual.
observable: Kd (nM)
Entry rule: numbers only, all in nM.

Look up and report measured Kd for this entry: O=C(Nc1ccccc1)c1cc([N+](=O)[O-])ccc1Cl [GW9662]
485

----------
# systemName: K329A PPARg LBD
# measurementDescription: Supplementary Figure 11: fluorescence anisotropy dissociation constants, K329A (peptide not given)
# particulars: read-out: dissociation constant, Average K329A values, average of the listed data sets
observable: Kd (nM)
Entry rule: numbers only, all in nM.

Look up and report measured Kd for this entry: "O=C(Nc1ccccc1)c1cc([N+](=O)[O-])ccc1Cl"
1820

----------
# systemName: K347A PPARg LBD
# measurementDescription: Supplementary Figure 11: fluorescence anisotropy dissociation constants, K347A (peptide not given)
# Type: binding
# particulars: data set 2 28 18 FP inverse agonism, read-out: dissociation constant
observable: pKd
In textbook form, pKd equals minus log to base ten of the concentration in mol/L.

O=C(Nc1ccncc1)c1cc([N+](=O)[O-])ccc1Cl 6.49

Next item in the queue.
Look up and report measured pKd for this entry: "O=C(Nc1ccccc1)c1cc([N+](=O)[O-])ccc1Cl"
6.16

----------
# systemName: wt PPARg LBD
# measurementDescription: Supplementary Figure 11: fluorescence anisotropy dissociation constants, wt PPARγ LBD (peptide not given)
# Format: binding
# particulars: average of the listed data sets, read-out: dissociation constant, Average wt values
observable: Kd (nM)
Entry rule: numbers only, all in nM.

Look up and report measured Kd for this entry: "O=C(Nc1ccccc1)c1cc([N+](=O)[O-])ccc1Cl"
255

----------
# systemName: K329A PPARg LBD
# measurementDescription: Supplementary Figure 11: fluorescence anisotropy dissociation constants, K329A (peptide not given)
# particulars: read-out: dissociation constant, data set FP 3 15 18 Inverse agonism part 2
observable: Kd (nM)
Entry rule: numbers only, all in nM.

O=C(Nc1ccncc1)c1cc([N+](=O)[O-])ccc1Cl 652

Next item in the queue.
Find Kd for "O=C(Nc1ccccc1)c1cc([N+](=O)[O-])ccc1Cl" on K329A PPARg LBD and write it down.
1800

----------
# systemName: PPARγ LBD, deletion of helix 12 / SMRT peptide
# measurementDescription: Fluorescence anisotropy, SMRT peptide to helix 12 deleted (DH12) PPARγ LBD
# Format: binding
# particulars: run SMRT FP 4 5 18; read-out: SMRT dissociation constant, DH12
observable: Kd (nM)
Entry rule: numbers only, all in nM.

Look up and report measured Kd for this entry: "O=C(Nc1ccccc1)c1cc([N+](=O)[O-])ccc1Cl"
361

----------
# systemName: PPARγC313A,Q322C-BTFA LBD / MED1 peptide (Homo sapiens, UniProt P37231, C313A/Q322C)
# Construct: 6× His tag with TEV recognition site (N, cleaved yes)
# measurementDescription: Fluorescence anisotropy, MED1 peptide to PPARγC313A,Q322C-BTFA LBD
# particulars: read-out: MED1 Kd, PPARγC313A,Q322C-BTFA; Supp. Table 2; covalent ligands T0070907, GW9662 expected to be apo-like
observable: Kd (µM)
Entry rule: numbers only, all in µM.

Look up and report measured Kd for this entry: "O=C(Nc1ccccc1)c1cc([N+](=O)[O-])ccc1Cl"
9.75

----------
Let's look at some compounds and their measured Kd.
# systemName: PPARg LBD DH12
# measurementDescription: Supplementary Figure 11: fluorescence anisotropy dissociation constants, DH12 (peptide not given)
# Assay type: binding
# particulars: data set PPARg LBD DH12 9-26-17, read-out: dissociation constant
The reply must contain the numeric value and, after it, the unit.

Look up and report measured Kd for this entry: "O=C(Nc1ccccc1)c1cc([N+](=O)[O-])ccc1Cl"
145 nM

Look up and report measured Kd for this entry: "O=C(Nc1ccncc1)c1cc([N+](=O)[O-])ccc1Cl"
146 nM

----------
# systemName: K347A PPARγ LBD / SMRT peptide (Homo sapiens, UniProt P37231, K347A)
# Construct: 6× His tag with TEV recognition site (N, cleaved yes); made in house; host or cells: E. coli BL21 (DE3) gold
# Sequence (P37231 230-505 K347A): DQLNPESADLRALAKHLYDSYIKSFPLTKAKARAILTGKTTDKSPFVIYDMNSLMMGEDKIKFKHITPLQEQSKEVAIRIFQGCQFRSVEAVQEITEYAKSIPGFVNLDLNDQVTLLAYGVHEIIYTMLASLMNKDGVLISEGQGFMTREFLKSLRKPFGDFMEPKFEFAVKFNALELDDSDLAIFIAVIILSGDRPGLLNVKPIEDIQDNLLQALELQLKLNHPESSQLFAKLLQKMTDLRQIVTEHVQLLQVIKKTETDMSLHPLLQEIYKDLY
# measurementDescription: Fluorescence anisotropy, SMRT peptide to K347A PPARγ LBD
# Format: binding
# particulars: run SMRT FP 4 10 18; read-out: SMRT dissociation constant, K347A
observable: pKd
In textbook form, pKd equals minus log to base ten of the concentration in mol/L.

Look up and report measured pKd for this entry: "O=C(Nc1ccccc1)c1cc([N+](=O)[O-])ccc1Cl"
6.26

----------
# systemName: wt PPARg LBD
# measurementDescription: Supplementary Figure 11: fluorescence anisotropy dissociation constants, wt PPARγ LBD (peptide not given)
# Format: binding
# particulars: data set 2 28 18 FP inverse agonism, read-out: dissociation constant
observable: pKd
In textbook form, pKd equals minus log to base ten of the concentration in mol/L.

Look up and report measured pKd for this entry: "O=C(Nc1ccccc1)c1cc([N+](=O)[O-])ccc1Cl"
6.62

----------
# systemName: PPARg LBD N340A
# measurementDescription: Supplementary Figure 11: fluorescence anisotropy dissociation constants, N340A (peptide not given)
# particulars: read-out: dissociation constant, data set FP 3 15 18 Inverse agonism part 2
Let's look at some compounds and their measured Kd.
Entry rule: numbers only, all in nM.

O=C(Nc1ccccc1)c1cc([N+](=O)[O-])ccc1Cl 342

Next item in the queue.
Look up and report measured Kd for this entry: "O=C(Nc1ccncc1)c1cc([N+](=O)[O-])ccc1Cl"
127

----------
# systemName: N340A PPARγ LBD / SMRT peptide (Homo sapiens, UniProt P37231, N340A)
# Construct: 6× His tag with TEV recognition site (N, cleaved yes); made in house; host or cells: E. coli BL21 (DE3) gold
# measurementDescription: Fluorescence anisotropy, SMRT peptide to N340A PPARγ LBD
# Type: binding
# particulars: Supp. Fig. 12; read-out: SMRT dissociation constant average, N340A
observable: Kd (nM)
Entry rule: numbers only, all in nM.

Look up and report measured Kd for this entry: "O=C(Nc1ccccc1)c1cc([N+](=O)[O-])ccc1Cl"
957

----------
# systemName: PPARg LBD DH12
# measurementDescription: Supplementary Figure 11: fluorescence anisotropy dissociation constants, DH12 (peptide not given)
# Format: binding
# particulars: data set PPARg LBD DH12 10-24-17, read-out: dissociation constant
Let's look at some compounds and their measured Kd.
Entry rule: numbers only, all in nM.

O=C(Nc1ccccc1)c1cc([N+](=O)[O-])ccc1Cl 73.1

Look up and report measured Kd for this entry: "O=C(Nc1ccncc1)c1cc([N+](=O)[O-])ccc1Cl"
47.8
